meta.source: PubChem BioAssay AID2060513

# Test system: 299254-011-R-J1-PDC complex spheroids viability
# PROCEDURE_TEXT: Anticancer human tumor 299254-011-R-J1-PDC patient-derived melanoma cell line growth inhibition [GQUAD]; active = viability on the fitted dose curve at most 10% of control; inactive = the rest
# ASSAY_CONTEXT: second compound 0.1 µM; first compound 3.16 µM
# Excerpt: DNA G-quadruplex Stabilizer Agents in Combinations in Complex Spheroids A high-throughput screen of multi-cell type tumor spheroids was designed to identify active combinations of DNA G-quadruplex stabilizer agents and targeted small molecules. […] Compounds. […] If the clinical Cmax for an agent had not been determined, the highest concentration tested was 10 microM. […]
Just give me one of these, please: 1 (active), 0 (inactive)

Examples from the recorded data:
[
  {
    "MOLECULE": "COc1ncnc(C2CC2)c1-c1ncc2cnn(Cc3ccc(-c4nc(C(F)(F)F)cn4C(C)C)cc3)c2n1 + Cc1cnc(CNC(=O)c2c(=O)c3ccc(N4CCCN(C)CC4)nc3n3c2sc2ccccc23)cn1",
    "ASSIGNED_CLASS": 0
  },
  {
    "MOLECULE": "CC(C)n1c(=O)n(C)c2cnc3cc(F)c(-c4ccc(OCCCN5CCCCC5)nc4)cc3c21 + Cc1[nH]c2ccc(F)cc2c1-c1nc2c3cccnc3c3ncccc3c2[nH]1",
    "ASSIGNED_CLASS": 0
  },
  {
    "MOLECULE": "CC(C)(O)C1CCC(Nc2ccc3ncc(-c4cccc(C(F)(F)F)c4)n3n2)CC1 (stereo not given) + Cc1[nH]c2ccc(F)cc2c1-c1nc2c3cccnc3c3ncccc3c2[nH]1",
    "ASSIGNED_CLASS": 0
  },
  {
    "MOLECULE": "C#Cc1c(F)ccc2cc(O)cc(-c3ncc4c(N5CC6CCC(C5)N6)nc(OCC56CCCN5CC(F)C6)nc4c3F)c12 (stereo not given) + Cc1[nH]c2ccc(F)cc2c1-c1nc2c3cccnc3c3ncccc3c2[nH]1",
    "ASSIGNED_CLASS": 0
  },
  {
    "MOLECULE": "CCCS(=O)(=O)Nc1ccc(F)c(C(=O)c2c[nH]c3ncc(-c4ccc(Cl)cc4)cc23)c1F + Cc1[nH]c2ccc(F)cc2c1-c1nc2c3cccnc3c3ncccc3c2[nH]1",
    "ASSIGNED_CLASS": 0
  }
]

Can you look up the reported call for O=C(NO)c1cnc(N2CCN(S(=O)(=O)c3ccc4ccccc4c3)CC2)nc1 + Cc1cnc(CNC(=O)c2c(=O)c3ccc(N4CCCN(C)CC4)nc3n3c2sc2ccccc23)cn1 for me?
1

How did this test come out for O=C(c1cc(Cc2n[nH]c(=O)c3ccccc23)ccc1F)N1CCN(C(=O)C2CC2)CC1 + Cc1[nH]c2ccc(F)cc2c1-c1nc2c3cccnc3c3ncccc3c2[nH]1 ?
0

Just curious, what result did CC1COCCN1c1cc(C2(S(C)(=N)=O)CC2)nc(-c2ccnc3[nH]ccc23)n1 (stereo not given) + Cc1[nH]c2ccc(F)cc2c1-c1nc2c3cccnc3c3ncccc3c2[nH]1 get here?
0

Record lookup: outcome of this test for CC(=O)O[C@H]1C(=O)[C@@]2(C)[C@H]([C@H](OC(=O)c3ccccc3)[C@]3(O)C[C@H](OC(=O)[C@H](O)[C@@H](NC(=O)c4ccccc4)c4ccccc4)C(C)=C1C3(C)C)[C@]1(OC(C)=O)CO[C@@H]1C[C@@H]2O + CN(C)c1ccc(Nc2c3ccc(NC(=O)CCN4CCCC4)cc3nc3cc(NC(=O)CCN4CCCC4)ccc23)cc1 ?
0

// outcome(item) with item = Nc1ccn(C2OC(CO)C(O)C2(F)F)c(=O)n1 (stereo not given) + CN(C)c1ccc(Nc2c3ccc(NC(=O)CCN4CCCC4)cc3nc3cc(NC(=O)CCN4CCCC4)ccc23)cc1
0

###

# Test system: 299254-011-R-J1-PDC complex spheroids viability
# PROCEDURE_TEXT: Anticancer human tumor 299254-011-R-J1-PDC cell line growth inhibition [GQUAD];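 also: spheroids exposed to the agents for seven days before readout; percent viability relative to DMSO vehicle control wells = 100%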
# ASSAY_CONTEXT: second compound 0.316 µM; first compound 0.0316 µM; hits give low values
Known viability, T/C of a selection of compounds
A number alone suffices; assume %.

[
  {
    "COMPOUND": "Nc1ccn(C2OC(CO)C(O)C2(F)F)c(=O)n1 (stereo not given) + Cc1cnc(CNC(=O)c2c(=O)c3ccc(N4CCCN(C)CC4)nc3n3c2sc2ccccc23)cn1",
    "UNITS_OF_MEASURE": "%",
    "viability, T/C": 80.5
  },
  {
    "COMPOUND": "Cc1cccc(N(C)C(=O)C2C(O)CCN2c2nc(C)cc(C(F)(F)F)c2C#N)c1 (stereo not given) + Cc1[nH]c2ccc(F)cc2c1-c1nc2c3cccnc3c3ncccc3c2[nH]1",
    "UNITS_OF_MEASURE": "%",
    "viability, T/C": 114
  }
]

# get_value(readout='viability, T/C', item= CC(=O)O[C@H]1C(=O)[C@@]2(C)[C@H]([C@H](OC(=O)c3ccccc3)[C@]3(O)C[C@H](OC(=O)[C@H](O)[C@@H](NC(=O)c4ccccc4)c4ccccc4)C(C)=C1C3(C)C)[C@]1(OC(C)=O)CO[C@@H]1C[C@@H]2O + Cc1cnc(CNC(=O)c2c(=O)c3ccc(N4CCCN(C)CC4)nc3n3c2sc2ccccc23)cn1 )
94.4

Returns the measured viability, T/C for the input compound. Input: COc1cc(C2c3cc4c(cc3C(OC3OC5COC(C)OC5C(O)C3O)C3COC(=O)C23)OCO4)cc(OC)c1O (stereo not given) + CN(C)c1ccc(Nc2c3ccc(NC(=O)CCN4CCCC4)cc3nc3cc(NC(=O)CCN4CCCC4)ccc23)cc1
104

Request the reported viability, T/C associated with C#Cc1c(F)ccc2cc(O)cc(-c3ncc4c(N5CC6CCC(C5)N6)nc(OCC56CCCN5CC(F)C6)nc4c3F)c12 (stereo not given) + Cc1cnc(CNC(=O)c2c(=O)c3ccc(N4CCCN(C)CC4)nc3n3c2sc2ccccc23)cn1
113

Any idea what viability, T/C was measured for CC1COCCN1c1cc(C2(O)CC3CCC(C2)O3)c2cnn(-c3ccn[nH]3)c2n1 (stereo not given) + CN(C)c1ccc(Nc2c3ccc(NC(=O)CCN4CCCC4)cc3nc3cc(NC(=O)CCN4CCCC4)ccc23)cc1 ?
82.9

Item CCCS(=O)(=O)Nc1ccc(F)c(C(=O)c2c[nH]c3ncc(-c4ccc(Cl)cc4)cc23)c1F + CN(C)c1ccc(Nc2c3ccc(NC(=O)CCN4CCCC4)cc3nc3cc(NC(=O)CCN4CCCC4)ccc23)cc1 has what recorded viability, T/C?
106

###

# Test system: 299254-011-R-J1-PDC complex spheroids viability
# PROCEDURE_TEXT: Anticancer human tumor 299254-011-R-J1-PDC cell line growth inhibition [GQUAD];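 also: spheroids exposed to the agents for seven days before readout; percent viability relative to DMSO vehicle control wells = 100%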
# ASSAY_CONTEXT: second compound 3.16 µM; first compound 0.0999 µM; hits give low values
ASSAY_ENDPOINT: viability, T/C (%)
Express it in %; write the number only.

The following molecules have reported results that may help.
[
  {
    "MOLECULE": "CCc1c2c(nc3ccc(O)cc13)-c1cc3c(c(=O)n1C2)COC(=O)[C@]3(O)CC + CN(C)c1ccc(Nc2c3ccc(NC(=O)CCN4CCCC4)cc3nc3cc(NC(=O)CCN4CCCC4)ccc23)cc1",
    "viability, T/C / %": 84.5
  },
  {
    "MOLECULE": "Cc1[nH]c2ccccc2c1CCNCc1ccc(/C=C/C(=O)NO)cc1 + Cc1[nH]c2ccc(F)cc2c1-c1nc2c3cccnc3c3ncccc3c2[nH]1",
    "viability, T/C / %": 74.8
  },
  {
    "MOLECULE": "Cc1[nH]c2ccccc2c1CCNCc1ccc(/C=C/C(=O)NO)cc1 + CN(C)c1ccc(Nc2c3ccc(NC(=O)CCN4CCCC4)cc3nc3cc(NC(=O)CCN4CCCC4)ccc23)cc1",
    "viability, T/C / %": 68.9
  },
  {
    "MOLECULE": "Cn1ncnc1[C@H]1c2n[nH]c(=O)c3cc(F)cc(c23)N[C@@H]1c1ccc(F)cc1 + Cc1[nH]c2ccc(F)cc2c1-c1nc2c3cccnc3c3ncccc3c2[nH]1",
    "viability, T/C / %": 88.6
  },
  {
    "MOLECULE": "CC[C@@]1(O)C(=O)OCc2c1cc1n(c2=O)Cc2cc3c(CN(C)C)c(O)ccc3nc2-1 + CN(C)c1ccc(Nc2c3ccc(NC(=O)CCN4CCCC4)cc3nc3cc(NC(=O)CCN4CCCC4)ccc23)cc1",
    "viability, T/C / %": 124
  },
  {
    "MOLECULE": "CCc1c2c(nc3ccc(O)cc13)-c1cc3c(c(=O)n1C2)COC(=O)[C@]3(O)CC + Cc1[nH]c2ccc(F)cc2c1-c1nc2c3cccnc3c3ncccc3c2[nH]1",
    "viability, T/C / %": 79.9
  }
]

What does the data say about its viability, T/C? Entry: CC[C@@]1(O)C(=O)OCc2c1cc1n(c2=O)Cc2cc3c(CN(C)C)c(O)ccc3nc2-1 + Cc1cnc(CNC(=O)c2c(=O)c3ccc(N4CCCN(C)CC4)nc3n3c2sc2ccccc23)cn1
77.7
